# TARGET OR SYSTEM: human adenosine A1 receptors expressed in CHO cells (Homo sapiens, UniProt P30542)
# Construct: expressed in transfected cells; host or cells: CHO cells
# Sequence (P30542 whole entry): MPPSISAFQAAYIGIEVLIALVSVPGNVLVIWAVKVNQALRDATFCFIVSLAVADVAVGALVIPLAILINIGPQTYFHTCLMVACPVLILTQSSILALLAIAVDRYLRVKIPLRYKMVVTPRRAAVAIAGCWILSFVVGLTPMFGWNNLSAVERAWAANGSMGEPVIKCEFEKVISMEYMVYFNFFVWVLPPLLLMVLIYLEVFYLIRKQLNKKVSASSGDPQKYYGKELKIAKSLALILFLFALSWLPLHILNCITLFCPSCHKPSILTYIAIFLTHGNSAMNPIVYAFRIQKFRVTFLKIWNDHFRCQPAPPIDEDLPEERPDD
# PROTOCOL: cAMP assay A1 (inhibition of forskolin-induced cAMP production)
# Format: cell-based
# CONDITIONS: compared to reference full agonist CPA (10 μM) in A1 CHO cells; tested at ±100 × Ki; ±SEM, n = 3; forskolin 10 μM
PARAMETER: % inhib. A1 of forskolin-induced cAMP (%)
Numbers only; they are read as %.

Worked set:
# CPD SMILES, UNIT ABBREV, % inhib. A1 of forskolin-induced cAMP
rows = [
    ("O[C@@H]1[C@H](O)[C@@H](COC2CC2)O[C@H]1n1cnc2c(NC3CCCC3)nc(Cl)nc21", "%", 43),
    ("CCOC[C@H]1O[C@@H](n2cnc3c(NCc4cccc(I)c4)nc(Cl)nc32)[C@H](O)[C@@H]1O", "%", "−72"),
]

Moving on to another molecule below.
### Prompt Item under review: O[C@@H]1[C@H](O)[C@@H](COC2CC2)O[C@H]1n1cnc2c(NCc3cccc(I)c3)ncnc21 . Reported % inhib. A1 of forskolin-induced cAMP?
### Response −104
